- RUN_DESCRIPTION: drug combination growth inhibition, ovarian cancer – cell-based, oncology-focused library, rucaparib conditional, profiling panel (AID 1508598)
- APPLIED_CONDITIONS: patient-derived ovarian cancer cells, CellTiter-Glo viability, 144 h; at 0.0195 µM; OCI-C5x cells; without rucaparib
Activity calls are given as the source filed them.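 The calls were made as follows: active = normalized viability below 100% at a tested concentration; inactive = the rest.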
Possible outcomes: TRUE = active, FALSE = inactive

CC(=O)Nc1nc(C)c(-c2ccc(Cl)c(S(=O)(=O)NCCO)c2)s1 : FALSE
COc1cc(OC)c(/C=C/S(=O)(=O)Cc2ccc(OC)c(NCC(=O)O)c2)c(OC)c1 : TRUE
CN(C)Cc1ccc(-c2nc3cccc4c3n2CCNC4=O)cc1 : FALSE
O=C(O)c1ccc2c(c1)nc(Nc1cccc(Cl)c1)c1ccncc12 : FALSE
CCN(CCO)CCCOc1ccc2c(Nc3cc(CC(=O)Nc4cccc(F)c4)[nH]n3)ncnc2c1 : TRUE
CC1(C)CCC(c2ccc(Cl)cc2)=C(CN2CCN(c3ccc(C(=O)NS(=O)(=O)c4ccc(N[C@H](CCN5CCOCC5)CSc5ccccc5)c(S(=O)(=O)C(F)(F)F)c4)cc3)CC2)C1 : TRUE
O=C(O)c1ccc(O)c2ncccc12 : FALSE
C#Cc1cccc(Nc2ncnc3cc(OC)c(OCCCCCCC(=O)NO)cc23)c1 : FALSE
CC1(C)CNc2cc(NC(=O)c3cccnc3NCc3ccncc3)ccc21 : FALSE
O=C(Nc1ccc(OC(F)(F)F)cc1)c1sccc1NCc1ccnc2ccccc12 : FALSE
Cc1ccc([C@@H]2O[C@H](CO)[C@@H](O)[C@H](O)[C@H]2O)cc1Cc1ccc(-c2ccc(F)cc2)s1 : FALSE
O=S(=O)(O)CCSSCCS(=O)(=O)O : FALSE
Fc1cc(-c2cccc3ncc(-c4cnn(C5CCNCC5)c4)nc23)cc(F)c1CN1CCOCC1 : FALSE
CC1(COc2ccc3c(c2)ncn3-c2ccc3cccc(N4CCC(N)CC4)c3n2)COC1 : FALSE

###

- RUN_DESCRIPTION: viability loss in pontine glioma line – cell-based, JHH-DIPG-1, MIPE4.0, CellTiter-Glo, qHTS, dose response (AID 1347062);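 as to AC50: cells exposed to compound for two days before readout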
- APPLIED_CONDITIONS: JHH-DIPG-1 viability, CellTiter-Glo ATP luminescence
Records with an inconclusive call do not appear. The source made the active and inactive calls. Cut-off not given; nearly all actives show AC50 up to about 27 µM.
Outcome codes: t for active, f for inactive

COc1cccc2c1C(=O)c1c(O)c3c(c(O)c1C2=O)C[C@@](O)(C(=O)CO)C[C@@H]3O[C@H]1C[C@H](N)[C@H](OC2CCCCO2)[C@H](C)O1 (some centres undefined) : t
O=C(Nc1ccccc1Br)N[C@@H]1CCN(c2ccc(C(F)(F)F)cn2)C1 : f
C=C1c2cccc(O)c2C(O)=C2C(=O)[C@@]3(O)C(O)=C(C(N)=O)C(=O)[C@@H](N(C)C)[C@@H]3[C@@H](O)[C@H]12 : f
O=C(NC1CC1)c1cccc(-c2ccc3c(NC(=O)C4CC4)n[nH]c3c2)c1 : t
Cc1cc(-c2nnc3n2CCCCC3)c(C)n1-c1ccccc1 : f
O=C1NC(=O)/C(=C/c2ccc(-c3ccc(F)cc3O)o2)S1 : f
NC1=N[C@H]2[C@H](CS[C@H]2CCCCC(=O)O)N1 : f
NS(=O)(=O)c1ccc(NC2=CC(=O)c3ccccc3C2=O)cc1 : f
CN(C)c1ccc(C(=O)NCCCCCCC(=O)NO)cc1 : t
